Kindly supply the reported pKi values for the records listed here.
measuredOn: UniProt:P07711
procedureDetails: Inhibition of human cathepsin L by fluorescence assay
Value format note: pKi is -log10 of concentration (mol/L); just state the number.

Q) Item under review: CC[C@@H]1OCC(=O)[C@H]1NC(=O)[C@H](CC1(C)CCCC1)NC(=O)c1ccc(NS(=O)(=O)CC)cc1 . Reported pKi?
A) 4.77

Q) Look up pKi for this molecule: CC[C@@H]1OCC(=O)[C@H]1NC(=O)[C@H](CC1(C)CCCC1)NC(=O)c1ccc(NS(=O)(=O)c2cccs2)cc1
A) 4.89

Q) // lookup pKi for CC[C@@H]1OCC(=O)[C@H]1NC(=O)[C@H](CC1(C)CCCC1)NC(=O)c1cccc(NS(C)(=O)=O)c1
A) 5.60

Q) Endpoint output: pKi of CC[C@@H]1OCC(=O)[C@H]1NC(=O)[C@H](CC1(C)CCCC1)NC(=O)c1ccc(NS(=O)(=O)Cc2ccccc2)cc1 . Value?
A) 4.82

Q) // pKi lookup, key: CC[C@@H]1OCC(=O)[C@H]1NC(=O)[C@H](CC1(C)CCCC1)NC(=O)c1ccc(NS(=O)(=O)C(F)(F)F)cc1
A) 4.82

Q) Bench note: what pKi did CC[C@@H]1OCC(=O)[C@H]1NC(=O)[C@H](CC1(C)CCCC1)NC(=O)c1ccc(N(C)S(C)(=O)=O)cc1 show?
A) 4.96

Q) Entry CC[C@@H]1OCC(=O)[C@H]1NC(=O)[C@H](CC1(C)CCCC1)NC(=O)c1ccc(NS(=O)(=O)c2cnccc2C)cc1 : reported pKi = ?
A) 5.06

---

measuredOn: Cathepsin K (Homo sapiens, UniProt P43235)
Sequence (P43235 whole entry): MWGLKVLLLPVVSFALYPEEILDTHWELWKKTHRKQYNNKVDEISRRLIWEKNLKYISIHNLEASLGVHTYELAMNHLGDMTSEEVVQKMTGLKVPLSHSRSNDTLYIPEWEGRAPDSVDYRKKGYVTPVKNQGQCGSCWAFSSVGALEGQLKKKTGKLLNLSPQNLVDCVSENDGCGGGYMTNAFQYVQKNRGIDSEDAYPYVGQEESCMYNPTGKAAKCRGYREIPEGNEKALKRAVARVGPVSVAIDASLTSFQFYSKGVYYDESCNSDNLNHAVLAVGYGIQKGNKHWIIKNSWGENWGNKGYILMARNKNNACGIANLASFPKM
procedureDetails: Inhibition of human recombinant cathepsin K expressed in baculovirus by fluorescence assay
For each record, check the reported Ki: if it is below 700 nM write label 1, else write label 0.

Q) API: query returns whether the compound falls strictly under 700 nM in Ki. Query: CC[C@@H]1OCC(=O)[C@H]1NC(=O)[C@H](CC1(C)CCCC1)NC(=O)c1ccc(NS(=O)(=O)C(C)C)cc1
A) label 1

Q) Quick check: Ki of CC[C@@H]1OCC(=O)[C@H]1NC(=O)[C@H](CC1(C)CCCC1)NC(=O)c1ccc(NS(=O)(=O)c2sc(C)nc2C)cc1 under 700 nM?
A) label 0

Q) Say whether its Ki is strictly beneath 700 nM. Entry: CC[C@@H]1OCC(=O)[C@H]1NC(=O)[C@H](CC1(C)CCCC1)NC(=O)c1ccc(NS(=O)(=O)c2cccc(OC)c2)cc1
A) label 1

Q) Bench note: check whether CC[C@@H]1OCC(=O)[C@H]1NC(=O)[C@H](CC1(C)CCCC1)NC(=O)c1ccc(NS(=O)(=O)c2ccncc2)cc1 shows Ki below 700 nM
A) label 0

Q) Would you kindly verify if Ki of CC[C@@H]1OCC(=O)[C@H]1NC(=O)[C@H](CC1(C)CCCC1)NC(=O)c1ccc(NS(C)(=O)=O)c(Cl)c1 is strictly less than 700 nM?
A) label 0

Q) Hi there! Is Ki for CC[C@@H]1OCC(=O)[C@H]1NC(=O)[C@H](CC1(C)CCCC1)NC(=O)c1ccc(NS(=O)(=O)c2cnccc2C)cc1 below 700 nM, do you know?
A) label 1

---

measuredOn: Procathepsin L (Homo sapiens, UniProt P07711)
Sequence (P07711 whole entry): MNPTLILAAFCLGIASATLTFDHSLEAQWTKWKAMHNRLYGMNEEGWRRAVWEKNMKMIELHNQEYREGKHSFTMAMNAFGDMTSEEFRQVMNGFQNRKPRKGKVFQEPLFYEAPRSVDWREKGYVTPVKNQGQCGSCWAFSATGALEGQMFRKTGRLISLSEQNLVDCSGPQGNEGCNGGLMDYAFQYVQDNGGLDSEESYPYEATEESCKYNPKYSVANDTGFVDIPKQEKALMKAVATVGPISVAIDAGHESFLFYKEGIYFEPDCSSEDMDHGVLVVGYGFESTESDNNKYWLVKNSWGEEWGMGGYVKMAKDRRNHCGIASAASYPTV
pKi: −log10 of the molar value.
pKi vs 5: at or above is y, below is n.

Q) Does CC[C@@H]1OCC(=O)[C@H]1NC(=O)[C@H](CC1(C)CCCC1)NC(=O)c1ccc(NS(=O)(=O)N(C)C)cc1 have a reported pKi of at least 5?
A) n

Q) Does pKi meet or surpass 5 for CC[C@@H]1OCC(=O)[C@H]1NC(=O)[C@H](CC1(C)CCCC1)NC(=O)c1ccc(NS(=O)(=O)c2nc(C)cs2)cc1 ?
A) n

Q) Identify whether the reported pKi of the following compound is 5 or greater: CC[C@@H]1OCC(=O)[C@H]1NC(=O)[C@H](CC1(C)CCCC1)NC(=O)c1ccc(NS(=O)(=O)C(C)C)cc1
A) n

Q) Is pKi for CC[C@@H]1OCC(=O)[C@H]1NC(=O)[C@H](CC1(C)CCCC1)NC(=O)c1ccc(NS(C)(=O)=O)c(C)c1 at or above 5?
A) y

Q) Reported pKi reaches at least 5 for CC[C@@H]1OCC(=O)[C@H]1NC(=O)[C@H](CC1(C)CCCC1)NC(=O)c1ccc(NS(=O)(=O)c2ccccc2)nc1 ?
A) n

Q) Entry CC[C@@H]1OCC(=O)[C@H]1NC(=O)[C@H](CC1(C)CCCC1)NC(=O)c1ccc(NS(=O)(=O)c2cccnc2Cl)cc1 : is its pKi no less than 5?
A) n

Q) # check: pKi of CC[C@@H]1OCC(=O)[C@H]1NC(=O)[C@H](CC1(C)CCCC1)NC(=O)c1ccc(NS(C)(=O)=O)c(Cl)c1 is greater than or equal to 5
A) y

Q) Say whether CC[C@@H]1OCC(=O)[C@H]1NC(=O)[C@H](CC1(C)CCCC1)NC(=O)c1ccc(NS(=O)(=O)C2CCCCC2)cc1 shows pKi of 5 or more.
A) n

Q) I'd appreciate it if you could say whether CC[C@@H]1OCC(=O)[C@H]1NC(=O)[C@H](CC1(C)CCCC1)NC(=O)c1ccc(NS(=O)(=O)c2cccc(OC)c2)cc1 has pKi at least equal to 5.
A) n

---

Please provide measured log10 Ki for the entries that follow.
measuredOn: Cathepsin S (Homo sapiens, UniProt P25774)
Sequence (P25774 whole entry): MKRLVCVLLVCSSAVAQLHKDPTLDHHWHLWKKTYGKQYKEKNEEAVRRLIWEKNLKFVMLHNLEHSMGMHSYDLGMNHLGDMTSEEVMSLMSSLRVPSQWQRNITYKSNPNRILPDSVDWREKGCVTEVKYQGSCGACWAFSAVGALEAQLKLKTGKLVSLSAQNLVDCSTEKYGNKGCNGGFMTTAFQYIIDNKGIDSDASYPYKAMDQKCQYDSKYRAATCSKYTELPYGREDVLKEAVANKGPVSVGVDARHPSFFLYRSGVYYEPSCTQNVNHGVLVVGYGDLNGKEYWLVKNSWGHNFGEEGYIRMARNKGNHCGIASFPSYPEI
procedureDetails: Inhibition of human recombinant cathepsin S expressed in baculovirus by fluorescence assay
Response schema: value (number) is log10 of Ki in units of nM.

Q) Form field: reported log10 Ki of CC[C@@H]1OCC(=O)[C@H]1NC(=O)[C@H](CC1(C)CCCC1)NC(=O)c1ccc(NS(=O)(=O)c2sc(C)nc2C)cc1
A) -0.15

Q) I have this molecule here, CC[C@@H]1OCC(=O)[C@H]1NC(=O)[C@H](CC1(C)CCCC1)NC(=O)c1ccc(NS(=O)(=O)c2nccn2C)cc1 , and I need its recorded log10 Ki.
A) 0.65

Q) Name the reported log10 Ki value associated with the molecule CC[C@@H]1OCC(=O)[C@H]1NC(=O)[C@H](CC1(C)CCCC1)NC(=O)c1ccc(NS(=O)(=O)c2ccc(N)cc2)cc1
A) 0.11

Q) Recorded log10 Ki for CC[C@@H]1OCC(=O)[C@H]1NC(=O)[C@H](CC1(C)CCCC1)NC(=O)c1ccc(NS(=O)(=O)c2ccc(C#N)cc2)cc1 , please?
A) 0.04

Q) Recorded log10 Ki of CC[C@@H]1OCC(=O)[C@H]1NC(=O)[C@H](CC1(C)CCCC1)NC(=O)c1ccc(NS(C)(=O)=O)cc1 , please.
A) 0.41

Q) Dear colleague, I am looking for the recorded log10 Ki of the following molecule: CC[C@@H]1OCC(=O)[C@H]1NC(=O)[C@H](CC1(C)CCCC1)NC(=O)c1ccc(NS(=O)(=O)c2cccc(OC)c2)cc1
A) 0.00

Q) // log10 Ki lookup, key: CC[C@@H]1OCC(=O)[C@H]1NC(=O)[C@H](CC1(C)CCCC1)NC(=O)c1ccc(NS(C)(=O)=O)cc1C
A) 1.48

Q) # query: log10 Ki of entry CC[C@@H]1OCC(=O)[C@H]1NC(=O)[C@H](CC1(C)CCCC1)NC(=O)c1ccc(NS(=O)(=O)c2nc(C)cs2)cc1
A) 1.11

Q) Would you kindly share the measured log10 Ki for CC[C@@H]1OCC(=O)[C@H]1NC(=O)[C@H](CC1(C)CCCC1)NC(=O)c1ccc(NS(C)(=O)=O)c(C)c1 ?
A) 0.69

Q) Looking for the measured log10 Ki of CC[C@@H]1OCC(=O)[C@H]1NC(=O)[C@H](CC1(C)CCCC1)NC(=O)c1ccc(NS(=O)(=O)c2cccs2)cc1 , can you help?
A) 0.36

Q) log10 Ki for CC[C@@H]1OCC(=O)[C@H]1NC(=O)[C@H](CC1(C)CCCC1)NC(=O)c1ccc(NS(=O)(=O)CC)cc1 ?
A) 0.28

Q) Quick one: log10 Ki of CC[C@@H]1OCC(=O)[C@H]1NC(=O)[C@H](CC1(C)CCCC1)NC(=O)c1ccc(NS(=O)(=O)C(F)(F)F)cc1 ?
A) 0.92

Q) I'd like to know its log10 Ki. The molecule in question is CC[C@@H]1OCC(=O)[C@H]1NC(=O)[C@H](CC1(C)CCCC1)NC(=O)c1ccc(NS(=O)(=O)c2cccc(C#N)c2)cc1
A) -0.22

Q) Form field: reported log10 Ki of CC[C@@H]1OCC(=O)[C@H]1NC(=O)[C@H](CC1(C)CCCC1)NC(=O)c1ccc(NS(=O)(=O)c2ccccc2F)cc1
A) 0.58

Q) Could you tell me which log10 Ki is on file for CC[C@@H]1OCC(=O)[C@H]1NC(=O)[C@H](CC1(C)CCCC1)NC(=O)c1ccc(NS(=O)(=O)c2cccnc2Cl)cc1 ?
A) 0.77

Numbers sourced from ChEMBL document CHEMBL1143346.
